- Test system: K562 CRISPRi cells
- experimentalDetails: Constant region variant library pooled growth screen, K562
- Assay type: cell-based, human
- recordedConditions: sgRNA constant region variants; activity relative to the un-modified constant region cr995
Provide the reported Mean relative activity of each item.
Give a plain numeric answer without units written out.

Problem: Find the recorded Mean relative activity belonging to cr359 (nucleic acid, listed as DNA, chemistry not fully specified) guide: GTTTAAGAGCTAAGCTGGAAACAGCATCGCAAGTTTAAATAAGGCTAGTCCGTTATCAACTTGAAAAAGTGGCACCGAGTCGGTGCT and report it.
Result: 0.9746

Problem: Follow-up entry: cr644 (nucleic acid, listed as DNA, chemistry not fully specified) guide: GTTTAAGAGCTAAGCTGGAAACAGCATTGCAAGTTTAAATAAGGCTAGTCCGTTATCAACTTGAAAAAGTGGCACCGAGTCGGTGCT
Result: 0.9694
